Data origin, for the record: ChEMBL document CHEMBL1141016

Experiment: Cmax in Hanover Wistar rat at 5 mg/kg, po
Type: ADME, organism-based
Design: dose 5 mg/kg, route oral
Settings: in vivo
Parameter Measured: Cmax (nM)
One number for each entry, in nM.

// Cmax lookup, compound = Cc1cc(Cc2ccc(Cl)c(Oc3cc(C#N)cc(C#N)c3)c2F)n[nH]c1=O , result: 960

###

Test system: Rattus norvegicus
Assay: Tmax in Hanover Wistar rat assessed as 5-(6-chloro-2-fluoro-3-((5-methyl-6-oxo-1,6-dihydropyridazin-3-yl)methyl)phenoxy)isophthalonitrile level at 50 mg/kg, po
Type: ADME, organism-based
Parameters: dose 50 mg/kg, route oral
Conditions: in vivo
Each record is given yes if its reported Tmax is strictly below 4 h. Records at or above 4 h are given no.

Study these solved cases before continuing.
{"columns": ["Compound Structure String", "Assigned Class"],
 "data": [
  ["Cc1cc(Cc2ccc(Cl)c(Oc3cc(C#N)cc(C#N)c3)c2F)nn(COC(=O)OCCN(C)C)c1=O.Cl", "yes"],
  ["Cc1cc(Cc2ccc(Cl)c(Oc3cc(C#N)cc(C#N)c3)c2F)nn(COP(=O)([O-])[O-])c1=O.[Na+].[Na+]", "no"],
  ["Cc1cc(Cc2ccc(Cl)c(Oc3cc(C#N)cc(C#N)c3)c2F)nn(COC(=O)CCC(=O)O)c1=O", "yes"],
  ["Cc1cc(Cc2ccc(Cl)c(Oc3cc(C#N)cc(C#N)c3)c2F)nn(COC(=O)c2cccnc2)c1=O.Cl", "no"],
  ["Cc1cc(Cc2ccc(Cl)c(Oc3cc(C#N)cc(C#N)c3)c2F)nn(COC(=O)OCCN2CCOCC2)c1=O.Cl", "yes"]
]}

# next compound below
Data request: Say whether its Tmax is strictly beneath 4 h. Entry: Cc1cc(Cc2ccc(Cl)c(Oc3cc(C#N)cc(C#N)c3)c2F)nn(COC(=O)[C@@H]2CCCN2)c1=O.Cl
Data returned: no
